measurement.description: Cmax in lung of methicillin-resistant Staphylococcus aureus infected ddY mouse at 100 mg/kg, ip administered 1 day post infection by fluorescence polarization immunoassay
Format: ADME, organism-based
Parameters: dose 100 mg/kg, route intraperitoneal
measurement.type: Cmax (ng/mL)
Your answer should be a plain number; it is taken to be in ng/mL.

I'd like to know its Cmax. The molecule in question is CN[C@H](CC(C)C)C(=O)N[C@H]1C(=O)N[C@@H](CC(N)=O)C(=O)N[C@H]2C(=O)N[C@H]3C(=O)N[C@H](C(=O)N[C@H](C(=O)O)c4cc(O)cc(O)c4-c4cc3ccc4O)[C@H](O)c3ccc(c(Cl)c3)Oc3cc2cc(c3O[C@@H]2O[C@H](CO)[C@@H](O)[C@H](O)[C@H]2O[C@H]2C[C@](C)(N)[C@H](O)[C@H](C)O2)Oc2ccc(cc2Cl)[C@H]1O [VANCOMYCIN] 38500

Cited source: ChEMBL document CHEMBL1255367
